# growth per record follows
System: HT29 colon
Experiment: NCI-60 one-dose screen, 48 h (100 = growth as untreated, 0 = no growth, -100 = all killed)
Conditions: 10 µM unless noted
About 83,000 compounds went through this panel and 20% of them were active in at least one assay; those are over-represented in the sample as a whole.
// note: answer is a bare numeric in %

CCOC(=O)N[C@H]1CCc2cc(OC)c(OC)c(OC)c2-c2ccc(SC)c(=O)cc21 :: 7.57

The reported value for `CC(=O)c1cccs1` in terms of growth is 99.8

Short answer for `Cc1cc(CO)c(O)c(CO)c1` : growth was 95.4

In plain terms, `Cc1nc(O)cc(=O)[nH]1` has a documented growth of 108

GET /value?item= `CCCCCC#CC(=O)O` &field=growth returns 99.5

The measured growth associated with Cc1ccccc1CC(N)C(=O)O (stereo not drawn) reads 107
